Molecular target: PHD2 (Homo sapiens, UniProt Q9GZT9)
Construct: FLAG-tagged full length PHD2 expressed in and purified from baculovirus-infected Sf9 cells; FLAG
Sequence (Q9GZT9 whole entry, species assumed): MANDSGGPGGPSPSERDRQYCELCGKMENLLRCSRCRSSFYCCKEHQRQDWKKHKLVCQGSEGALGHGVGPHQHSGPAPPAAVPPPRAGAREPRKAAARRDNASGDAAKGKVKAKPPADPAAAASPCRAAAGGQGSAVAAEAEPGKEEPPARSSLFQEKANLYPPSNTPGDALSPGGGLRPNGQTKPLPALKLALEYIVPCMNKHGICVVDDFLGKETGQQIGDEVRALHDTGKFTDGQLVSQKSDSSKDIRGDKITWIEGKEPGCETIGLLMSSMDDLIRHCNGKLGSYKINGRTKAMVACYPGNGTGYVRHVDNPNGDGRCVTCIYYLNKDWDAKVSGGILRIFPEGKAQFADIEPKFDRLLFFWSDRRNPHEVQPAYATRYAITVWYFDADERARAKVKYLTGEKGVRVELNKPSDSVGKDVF
Assay: PHD2 inhibition assay (time resolved fluorescence, HIF-1α peptide hydroxylation / VHL complex detection)
Details: FLAG-tagged full length PHD2; 0.2 μM 2-oxoglutarate, 0.5 μM HIF-1α peptide
Experimental: To each well of a 96-well plate was added 1 μL of test compound in DMSO and 20 μl of assay buffer (50 mM Iris pH 7.4/0.01% Tween-20/0.1 mg/ml bovine serum albumin/10 μM ferrous sulfate/1 mM sodium ascorbate/20 μg/ml catalase) containing 0.15 μg/ml FLAG-tagged full length PHD2 expressed in and purified from baculovirus-infected Sf9 cells. […]
pIC50: −log10 of the molar value.
Reported pIC50 is given for each of the following molecules.
endpoint-label: pIC50

- O=C(Nc1cnc(-n2cccn2)nc1O)c1cccc(Cl)c1: 7.70 to 9.30
- O=C(Nc1cnc(-n2cccn2)nc1O)Oc1ccc(-c2ccccc2)cc1: 5.00 to 7.00
- O=C(Nc1cnc(-n2cccn2)nc1O)C(c1ccccc1)c1ccccc1: 7.70 to 9.30
- O=C(Nc1cnc(-n2cccn2)nc1O)C1Cc2ccccc2C1: 7.70 to 9.30
- O=C(OC(c1ccccc1)c1ccccc1)c1cnc(-n2cccn2)nc1O: 5.00 to 7.00
- N#Cc1ccc(C(=O)Nc2cnc(-n3cccn3)nc2O)cc1: 7.00 to 7.70
- COc1ccc(CC(=O)Nc2cnc(-n3cccn3)nc2O)cc1: 7.70 to 9.30
- CCCCOC(=O)Nc1cnc(-n2cccn2)nc1O: 5.00 to 7.00
- CC(C)N(C(=O)Nc1cnc(-n2cccn2)nc1O)c1ccccc1: 7.00 to 7.70
- N#Cc1ccccc1C(=O)Nc1cnc(-n2cccn2)nc1O: 5.00 to 7.00
- O=C(CC1CCCCC1)Nc1cnc(-n2cccn2)nc1O: 7.70 to 9.30
- O=C(Nc1cnc(-n2cccn2)nc1O)C1CCCc2ccccc21 (centres unmarked): 7.70 to 9.30
- O=C(Nc1cnc(-n2cccn2)nc1O)c1ccccc1Oc1ccccc1: 7.00 to 7.70
- O=C(CCc1ccccc1)Nc1cnc(-n2cccn2)nc1O: 7.00 to 7.70
- CCCCCCC(=O)Nc1cnc(-n2cccn2)nc1O: 7.70 to 9.30
- CC(C)(NC(=S)Nc1cnc(-n2cccn2)nc1O)c1ccccc1: 7.00 to 7.70
- CC(C)(C(=O)Nc1cnc(-n2cccn2)nc1O)c1ccccc1: 7.70 to 9.30
- COc1cccc(CC(=O)Nc2cnc(-n3cccn3)nc2O)c1: 7.70 to 9.30
- O=C(Nc1cnc(-n2cccn2)nc1O)OC1CCCC1: 7.00 to 7.70
- O=S(=O)(Nc1cnc(-n2cccn2)nc1O)c1ccc(Cl)cc1: 7.00 to 7.70

###

Reported pIC50 is given for each of the following compounds.
biological target: PHD2 (Homo sapiens); construct: FLAG-tagged full length PHD2 expressed in and purified from baculovirus-infected Sf9 cells; FLAG; assay: PHD2 inhibition assay (time resolved fluorescence, HIF-1α peptide hydroxylation / VHL complex detection); settings: FLAG-tagged full length PHD2; 0.2 μM 2-oxoglutarate, 0.5 μM HIF-1α peptide
pIC50: −log10 of the molar value.
endpoint-label: pIC50

• O=C(Nc1cnc(-n2cccn2)nc1O)c1ccccc1Cl = 7.70 to 9.30
• O=C(Cc1ccc(C(F)(F)F)cc1)Nc1cnc(-n2cccn2)nc1O = 7.70 to 9.30
• CC(C)(C)CCOC(=O)Nc1cnc(-n2cccn2)nc1O = 7.00 to 7.70
• O=C(Cc1ccccc1C(F)(F)F)Nc1cnc(-n2cccn2)nc1O = 7.70 to 9.30
• COc1ccccc1C(=O)Nc1cnc(-n2cccn2)nc1O = 7.00 to 7.70
• O=C(Nc1cnc(-n2cccn2)nc1O)OCCc1ccccc1 = 7.00 to 7.70
• CS(=O)(=O)c1ccc(C(=O)Nc2cnc(-n3cccn3)nc2O)cc1 = 7.00 to 7.70
• O=C(Cc1ccc(-c2ccccc2)cc1)Nc1cnc(-n2cccn2)nc1O = 7.70 to 9.30
• CC(C)(C)OC(=O)N1CCC(C(=O)Nc2cnc(-n3cccn3)nc2O)C1 (stereo not shown) = 7.00 to 7.70
• CC(C)(C)OC(=O)Nc1cnc(-n2cccn2)nc1O = 5.00 to 7.00
• O=C(Nc1cnc(-n2cccn2)nc1O)c1ccccc1C(F)(F)F = 7.70 to 9.30
• CCC(C)C(C(=O)Nc1cnc(-n2cccn2)nc1O)c1ccccc1 (stereo not shown) = 7.70 to 9.30
• O=C(Nc1cnc(-n2cccn2)nc1O)Oc1ccccc1 = 5.00 to 7.00
• O=C(Nc1ccccc1)Nc1cnc(-n2cccn2)nc1O = 5.00 to 7.00
• Oc1nc(-n2cccn2)ncc1-c1cnn(-c2ccccc2)c1 = 5.00 to 7.00
• O=C(Nc1cnc(-n2cccn2)nc1O)c1ccccc1-c1ccccc1 = 7.00 to 7.70
• O=C(Nc1cnc(-n2cccn2)nc1O)c1ccc(C(F)(F)F)cc1 = 7.00 to 7.70
• O=C(Nc1cnc(-n2cccn2)nc1O)C1CCc2ccccc2C1 (stereo not shown) = 7.00 to 7.70
• O=C(Cc1cccc2ccccc12)Nc1cnc(-n2cccn2)nc1O = 7.70 to 9.30

###

Target: PHD2 (Homo sapiens)
Construct: FLAG-tagged full length PHD2 expressed in and purified from baculovirus-infected Sf9 cells; FLAG
Test: PHD2 inhibition assay (time resolved fluorescence, HIF-1α peptide hydroxylation / VHL complex detection)
Conditions: FLAG-tagged full length PHD2; 0.2 μM 2-oxoglutarate, 0.5 μM HIF-1α peptide
Description: To each well of a 96-well plate was added 1 μL of test compound in DMSO and 20 μl of assay buffer (50 mM Iris pH 7.4/0.01% Tween-20/0.1 mg/ml bovine serum albumin/10 μM ferrous sulfate/1 mM sodium ascorbate/20 μg/ml catalase) containing 0.15 μg/ml FLAG-tagged full length PHD2 expressed in and purified from baculovirus-infected Sf9 cells. […]
pIC50: −log10 of the molar value.
endpoint-label: pIC50

- O=C(Cc1cnc(-n2cccn2)nc1O)NC1CCCCC1: 5.00 to 7.00
- O=C(Cc1ccc2c(c1)OCO2)Nc1cnc(-n2cccn2)nc1O: 7.70 to 9.30
- O=C(Nc1cnc(-n2cccn2)nc1O)Oc1ccc2ccccc2c1: 5.00 to 7.00
- CC(C)(C)NC(=O)Nc1cnc(-n2cccn2)nc1O: 5.00 to 7.00
- O=C(Cc1ccc(Cl)cc1)Nc1cnc(-n2cccn2)nc1O: 7.70 to 9.30
- O=C(Nc1cnc(-n2cccn2)nc1O)c1ccc(Cl)cc1: 7.00 to 7.70
- CC(NC(=O)Nc1cnc(-n2cccn2)nc1O)c1ccccc1 (stereo not drawn): 7.70 to 9.30
- O=C(Nc1cnc(-n2cccn2)nc1O)c1ccc(-c2ccccc2)cc1: 7.70 to 9.30
- CC(C)(C)OC(=O)N1CCC(CC(=O)Nc2cnc(-n3cccn3)nc2O)CC1: 7.00 to 7.70

###

target: PHD2 (Homo sapiens, UniProt Q9GZT9); construct: FLAG-tagged full length PHD2 expressed in and purified from baculovirus-infected Sf9 cells; FLAG; assay: PHD2 inhibition assay (time resolved fluorescence, HIF-1α peptide hydroxylation / VHL complex detection); conditions: FLAG-tagged full length PHD2; 0.2 μM 2-oxoglutarate, 0.5 μM HIF-1α peptide
Reported IC50 is given for each of the following compounds.
endpoint-label: IC50

• O=C(Nc1cnc(-n2cccn2)nc1O)C1CCc2ccccc21 (stereo not drawn) = 0.5 to 20 nM
• O=C(Nc1cnc(-n2cccn2)nc1O)C1(c2ccccc2)CC1 = 20 to 100 nM
• O=C(Cc1cccc(C(F)(F)F)c1)Nc1cnc(-n2cccn2)nc1O = 0.5 to 20 nM
• COc1ccccc1CC(=O)Nc1cnc(-n2cccn2)nc1O = 0.5 to 20 nM
• O=C(Nc1cnc(-n2cccn2)nc1O)NC1CCCC1 = 100 to 10000 nM
• N#Cc1cccc(C(=O)Nc2cnc(-n3cccn3)nc2O)c1 = 20 to 100 nM
• COc1ccc(OC(=O)Nc2cnc(-n3cccn3)nc2O)cc1 = 20 to 100 nM
• O=C(Nc1cnc(-n2cccn2)nc1O)c1cccc(-c2ccccc2)c1 = 20 to 100 nM
• Oc1nc(-n2cccn2)ncc1-c1ccccc1 = 100 to 10000 nM

###

target: PHD2 (Homo sapiens); construct: FLAG-tagged full length PHD2 expressed in and purified from baculovirus-infected Sf9 cells; FLAG; experiment: PHD2 inhibition assay (time resolved fluorescence, HIF-1α peptide hydroxylation / VHL complex detection); conditions: FLAG-tagged full length PHD2; 0.2 μM 2-oxoglutarate, 0.5 μM HIF-1α peptide
Reported IC50 is given for each of the following molecules.
endpoint-label: IC50

* O=C(CCCc1ccccc1)Nc1cnc(-n2cccn2)nc1O | 0.5 to 20 nM
* O=C(Nc1cnc(-n2cccn2)nc1O)c1cccc(Oc2ccccc2)c1 | 0.5 to 20 nM
* CC(C)NC(=O)Cc1cnc(-n2cccn2)nc1O | 100 to 10000 nM
* Oc1nc(-n2cccn2)ncc1NC(=S)NC(c1ccccc1)c1ccccc1 | 0.5 to 20 nM
* CCC(C(=O)Nc1cnc(-n2cccn2)nc1O)c1ccccc1 (centres unmarked) | 0.5 to 20 nM

Ref: patent US9006433B2
